Target: T1, human IL-36R extracellular domain expressed with a C-terminal myc-myc-hexahistidine tag (hIL-36R-MMH) (human, UniProt Q9HB29 20-337)
T1 construct: also called Human IL-36R-MMH; REGN2105
T1 sequence (Q9HB29 other isoform, or with tags, fused parts or gaps limits assumed): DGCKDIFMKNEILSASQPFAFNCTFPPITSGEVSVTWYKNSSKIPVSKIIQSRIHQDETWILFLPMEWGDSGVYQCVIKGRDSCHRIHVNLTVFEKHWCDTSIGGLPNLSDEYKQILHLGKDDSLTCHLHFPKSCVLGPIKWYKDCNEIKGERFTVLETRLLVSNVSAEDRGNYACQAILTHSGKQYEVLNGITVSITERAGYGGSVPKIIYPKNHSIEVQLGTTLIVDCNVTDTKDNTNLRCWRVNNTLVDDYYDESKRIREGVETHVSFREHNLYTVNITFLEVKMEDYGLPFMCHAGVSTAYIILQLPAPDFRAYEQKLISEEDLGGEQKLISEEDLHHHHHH
Test: SPR Biacore T200, mAb captured on anti-hFc, 37C, PBS-T pH 7.4 running buffer
Measured parameter: t1/2 (min)
Just the number please, in min, no unit attached.

Using the record for H4H14709P (antibody, human IgG4 S228P, kappa, V domains shown, Fully human anti-IL-36R antibody) VH: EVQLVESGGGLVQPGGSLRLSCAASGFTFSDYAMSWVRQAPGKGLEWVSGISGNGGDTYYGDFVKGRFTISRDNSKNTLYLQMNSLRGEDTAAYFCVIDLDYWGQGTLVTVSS VL: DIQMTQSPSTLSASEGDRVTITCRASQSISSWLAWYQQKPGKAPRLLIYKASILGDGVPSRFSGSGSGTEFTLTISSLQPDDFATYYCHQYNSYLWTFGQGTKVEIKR , report its t1/2.
16

Recorded t1/2 of H4H14757P (antibody, human IgG4 S228P, kappa, V domains shown, Fully human anti-IL-36R antibody) VH: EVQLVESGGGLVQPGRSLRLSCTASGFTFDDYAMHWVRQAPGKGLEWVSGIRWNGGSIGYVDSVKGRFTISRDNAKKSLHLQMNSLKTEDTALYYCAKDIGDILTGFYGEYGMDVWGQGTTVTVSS VL: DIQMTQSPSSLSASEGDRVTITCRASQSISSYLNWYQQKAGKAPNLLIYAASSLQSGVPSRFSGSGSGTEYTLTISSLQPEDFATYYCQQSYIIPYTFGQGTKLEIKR , please.
9

Dear colleague, I am looking for the recorded t1/2 of the following binder: H4H14699P2 (antibody, human IgG4 S228P, kappa, V domains shown, Fully human anti-IL-36R antibody) VH: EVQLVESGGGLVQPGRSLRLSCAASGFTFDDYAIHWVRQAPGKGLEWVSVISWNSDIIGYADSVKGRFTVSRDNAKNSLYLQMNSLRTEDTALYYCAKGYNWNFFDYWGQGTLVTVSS VL: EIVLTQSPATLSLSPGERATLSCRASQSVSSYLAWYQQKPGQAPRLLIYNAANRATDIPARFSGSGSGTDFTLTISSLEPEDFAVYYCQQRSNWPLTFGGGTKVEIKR
3

Requested field: t1/2. Item: H4H14706P2 (antibody, human IgG4 S228P, kappa, V domains shown, Fully human anti-IL-36R antibody) VH: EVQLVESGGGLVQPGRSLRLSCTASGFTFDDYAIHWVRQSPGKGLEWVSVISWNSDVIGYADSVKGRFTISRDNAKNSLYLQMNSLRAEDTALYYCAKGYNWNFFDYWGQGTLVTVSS VL: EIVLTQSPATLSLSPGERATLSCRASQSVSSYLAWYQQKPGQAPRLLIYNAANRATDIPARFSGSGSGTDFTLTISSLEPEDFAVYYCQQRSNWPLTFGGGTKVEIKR
9

For H4H14700P2 (antibody, human IgG4 S228P, kappa, V domains shown, Fully human anti-IL-36R antibody) VH: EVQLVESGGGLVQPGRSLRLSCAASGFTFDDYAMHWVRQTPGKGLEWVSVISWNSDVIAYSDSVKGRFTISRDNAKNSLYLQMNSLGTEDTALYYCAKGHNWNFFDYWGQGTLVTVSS VL: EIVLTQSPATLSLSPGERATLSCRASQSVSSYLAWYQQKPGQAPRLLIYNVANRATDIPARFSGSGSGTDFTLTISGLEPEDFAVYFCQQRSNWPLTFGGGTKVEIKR , what is its reported t1/2?
7

Query: t1/2; subject: H4H14731P (antibody, human IgG4 S228P, kappa, V domains shown, Fully human anti-IL-36R antibody) VH: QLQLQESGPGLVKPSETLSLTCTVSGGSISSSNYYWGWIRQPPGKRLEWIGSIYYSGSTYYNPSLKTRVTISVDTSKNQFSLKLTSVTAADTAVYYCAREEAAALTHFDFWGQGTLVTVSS VL: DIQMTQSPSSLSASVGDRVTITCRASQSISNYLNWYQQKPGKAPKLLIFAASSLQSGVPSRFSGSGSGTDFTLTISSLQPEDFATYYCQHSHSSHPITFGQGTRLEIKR
11

I am curious: what t1/2 value has been reported for H4H14728P (antibody, human IgG4 S228P, kappa, V domains shown, Fully human anti-IL-36R antibody) VH: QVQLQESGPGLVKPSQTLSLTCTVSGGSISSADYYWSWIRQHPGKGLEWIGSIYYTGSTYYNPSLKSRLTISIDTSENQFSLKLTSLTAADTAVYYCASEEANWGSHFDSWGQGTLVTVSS VL: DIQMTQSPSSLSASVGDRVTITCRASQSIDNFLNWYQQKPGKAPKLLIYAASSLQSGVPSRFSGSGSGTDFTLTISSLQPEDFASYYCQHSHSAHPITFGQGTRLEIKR ?
4
